# Test system: SN12C renal
# assay.overview: NCI tumour cell line growth inhibition, 48 h
quantity.measured: GI50

# annotated cases, reported GI50 shown
>  <compound>
Oc1ccc(/C=N/Nc2nnc(N/N=C/c3ccc(O)cc3O)c3ccccc23)c(O)c1

>  <GI50>
0.507 µM

$$$$
>  <compound>
CN(C)C(=O)c1cc2cnc(Nc3ccc(N4CCNCC4)cn3)nc2n1C1CCCC1

>  <GI50>
13.9 µM

$$$$
>  <compound>
Clc1ccc(N=CNc2ccc(-c3nc4ccccc4[nH]3)cc2)cc1

>  <GI50>
> 100 µM

$$$$
>  <compound>
COc1ccc(Cl)cc1Nc1nc(C(F)(F)F)ccc1C(=O)N/N=C/c1ccc(Cl)cc1

>  <GI50>
8.67 µM

$$$$
>  <compound>
Cc1c(N)nc(C2CC(=O)N2CC(N)C(N)=O)nc1C(=O)NC(C(=O)NC(C)C(O)C(C)C(=O)NC(C(=O)NCCc1nc(-c2nc(C(=O)NCCNCC(C)O)cs2)cs1)C(C)O)C(OC1OC(CO)C(O)C(O)C1OC1OC(CO)C(O)C(OC(N)=O)C1O)c1cnc[nH]1 (configuration not stated)

>  <GI50>
5.33 µM

$$$$

Form field: GI50 recorded for O=C(NCc1cccnc1)c1ccc([N+](=O)[O-])o1 with SN12C renal (enter value)
1.19 µM

Next compound up: O=C(Nc1cccc(C(F)(F)F)c1)Nc1cc(S(=O)(=O)NC2CC2)ccc1-c1ccsc1
4.33 µM

---

Below is a list of entries, each paired with its recorded TGI value.
# System: RPMI-8226 leukemia
# assay.overview: NCI tumour cell line growth inhibition, 48 h

>  <molecule>
N#Cc1c(N)n(-c2nc3ccccc3s2)c(=O)c2cc([N+](=O)[O-])ccc12

>  <measured.on>
RPMI-8226 leukemia

>  <TGI>
> 100 µM

$$$$
>  <molecule>
Nc1nc(Nc2cc(F)c(Cl)c(F)c2)cc(=O)[nH]1

>  <measured.on>
RPMI-8226 leukemia

>  <TGI>
> 100 µM

$$$$
>  <molecule>
Cc1nnc(N)s/c1=N/O

>  <measured.on>
RPMI-8226 leukemia

>  <TGI>
> 100 µM

$$$$
>  <molecule>
CCOC(=O)C1C(=O)C(=O)N2CCc3c([nH]c4ccccc34)C12 (stereo not given)

>  <measured.on>
RPMI-8226 leukemia

>  <TGI>
> 100 µM

$$$$

Now for a further molecule.
What value of TGI has been reported for the following molecule? CCC(=C(c1ccc(OCCN(CC)CC)cc1)c1ccc(OCCN(CC)CC)cc1)c1ccc(Cl)cc1
1.64 µM

---

# System: SR leukemia
# assay.overview: NCI tumour cell line growth inhibition, 48 h; in the data active = GI50 below about 0.43 µM; inactive = the rest
Result category, one only: active, inactive

Recorded results for 5 compounds are shown here.
>  <compound>
O=C(COC(=O)[C@H](C[Se][Se]C[C@H](NC(=O)c1ccc(Br)cc1F)C(=O)OCC(=O)c1ccc(F)cc1)NC(=O)c1ccc(Br)cc1F)c1ccc(F)cc1

>  <category>
inactive

$$$$
>  <compound>
COc1cc(/C=C/C(=O)c2c(-c3ccc(Cl)cc3)nc3sc(C)nn23)cc(OC)c1OC

>  <category>
inactive

$$$$
>  <compound>
COc1ccc(-c2ccc(/C=N/n3c(COc4ccc(Cl)c(C)c4)nn(CN4CCOCC4)c3=S)o2)c([N+](=O)[O-])c1

>  <category>
inactive

$$$$
>  <compound>
c1csc(-c2[nH]nc3c2CCc2ccccc2-3)c1

>  <category>
inactive

$$$$
>  <compound>
O=C(c1ccccc1)c1ccc(N2C(=O)C3C4c5ccccc5C(/C=C/C(=O)c5ccccn5)(c5ccccc54)C3C2=O)cc1 (stereo unspecified)

>  <category>
inactive

$$$$

Next, consider the following compound.
Please state the recorded outcome for this compound: O=C(/C=C/N1CCN(c2cccc(Cl)c2)CC1)c1ccc(Cl)cc1
inactive

---

# Test system: 786-0 renal
# assay.overview: NCI tumour cell line growth inhibition, 48 h
quantity.measured: TGI

>  <compound>
CCOP(=O)(OCC)/C(C#N)=C(\C)c1ccco1

>  <val>
> 10 µM

$$$$
>  <compound>
COc1cccc(OC)c1/C=N\N1C(=O)c2ccccc2C1=O

>  <val>
> 100 µM

$$$$
>  <compound>
O=C(Nc1ccccc1)Oc1ccccc1C1CCCCC1

>  <val>
53.2 µM

$$$$
>  <compound>
COC(=O)C1=C(C)N(NC(=O)Nc2ccccc2)C2(N)N(NC(=O)Nc3ccccc3)C(C)=C(C(=O)OC)C12C(=O)OC (stereo not drawn)

>  <val>
> 100 µM

$$$$
>  <compound>
NNC(=O)COc1nc(-c2cccs2)nc2ccc(I)cc12

>  <val>
78.8 µM

$$$$

Now for a further compound.
Form field: TGI recorded for Nc1nc(Nc2cc(F)c(Cl)c(F)c2)cc(=O)[nH]1 with 786-0 renal (enter value)
> 100 µM

---

# Tested on: UACC-62 melanoma
# assay.overview: NCI tumour cell line growth inhibition, 48 h; in the data active = GI50 below about 0.43 µM; inactive = the rest
Result category, one only: active, inactive

Recorded results for 2 compounds are shown here.
>  <chemical.structure>
CN(C)C(=O)c1cc2cnc(Nc3ccc(N4CCNCC4)cn3)nc2n1C1CCCC1

>  <category>
inactive

$$$$
>  <chemical.structure>
Nc1ccc(N)c2c1C(=O)c1cccc([N+](=O)[O-])c1C2=O

>  <category>
inactive

$$$$

Please state the recorded outcome for this compound: Cc1cccc(Cc2cnc(NC(=O)CCCOc3ccc(Cl)cc3)s2)c1
inactive

Next compound up: COc1cc2c(cc1OCCCN1CCN(CCCn3c4ccccc4c4ccccc43)CC1)N=C[C@@H]1CCCN1C2=O
active

Next compound up: CCNc1nc(-c2ccc(Cl)c(OC)c2)c(-c2ccnc(NCCNS(=O)(=O)c3ccc(Cl)cc3)n2)s1
inactive

---

# System: HS 578T breast
# assay.overview: NCI tumour cell line growth inhibition, 48 h
quantity.measured: TGI

# annotated cases, reported TGI shown
>  <compound>
CCc1nc2cc(F)ccc2[nH]c1=O

>  <quantity.measured>
TGI

>  <val>
> 100 µM

$$$$
>  <compound>
COc1ccc(-c2cc(=O)c3cc(OC)c(OC)cc3[nH]2)cc1OC

>  <quantity.measured>
TGI

>  <val>
> 100 µM

$$$$
>  <compound>
CC(=O)Oc1cc(OC(C)=O)c2c(c1C)CC[C@@H]1[C@@H]2CC[C@]2(C)[C@@H](OC(C)=O)CC[C@@H]12

>  <quantity.measured>
TGI

>  <val>
53.2 µM

$$$$
>  <compound>
O=C(Nc1cccc(C(F)(F)F)c1)Nc1ccc(OCc2nnc(-c3ccccc3)o2)c(F)c1

>  <quantity.measured>
TGI

>  <val>
14.7 µM

$$$$
>  <compound>
CC(=O)Nc1ccc(C(=O)COc2cccc(/C=C3\CCc4ccccc4C3=O)c2)cc1

>  <quantity.measured>
TGI

>  <val>
> 100 µM

$$$$
>  <compound>
CS(=O)(=O)Nc1ccc(Nc2c3ccccc3nc3cc(Cl)ccc23)cc1

>  <quantity.measured>
TGI

>  <val>
40.4 µM

$$$$
>  <compound>
C/C(=N\NC(=O)c1ccncc1)c1ccccc1O

>  <quantity.measured>
TGI

>  <val>
> 100 µM

$$$$
>  <compound>
COc1c(-c2nc3nc(N4CCN(C)CC4)ccc3[nH]2)cc(OC)c2c1nc(CCl)n2C

>  <quantity.measured>
TGI

>  <val>
> 100 µM

$$$$

What value of TGI has been reported for the following compound? CN(C)C(=O)c1cc2cnc(Nc3ccc(N4CCNCC4)cn3)nc2n1C1CCCC1
53.5 µM

Next compound up: CCOC(=O)C(NC(=O)c1cccc(Cl)c1)(N1CCN(c2cc3c(cc2F)c(=O)c(C(=O)O)cn3CC)CC1)C(F)(F)F (stereo not given)
44.8 µM

Next compound up: N/N=C(\N)SCc1ccc(N=C=S)cc1
> 100 µM

Next compound up: Oc1ccc(/C=N/Nc2nnc(N/N=C/c3ccc(O)cc3O)c3ccccc23)c(O)c1
0.954 µM

Next compound up: O=C1C(=O)c2c(ccc3ccccc23)-c2ccccc21
6 µM

Next compound up: CCN(CC)CCCNc1nnc(C)c2[nH]c3ccccc3c12
38 µM

Next compound up: CC(=O)OC1CCC2(C)C(=CCC3C4CC(CN5CC5)C(=O)C4(C)CCC32)C1 (stereo not given)
65.8 µM

---

# Tested on: DU-145 prostate
# assay.overview: NCI tumour cell line growth inhibition, 48 h
Below is a list of entries, each paired with its recorded TGI value.

# annotated cases, reported TGI shown
>  <compound>
Cn1c(=O)c2c(n(C)c1=O)n1c(=O)c3ccccc3nc1n2C

>  <val>
> 100 µM

$$$$
>  <compound>
Brc1ccc2c(c1)-c1ccccc1C1=NCCN12

>  <val>
10.9 µM

$$$$

What value of TGI has been reported for the following compound? Nc1nc2c(c(-c3ccc(F)cc3)n1)COC/C2=C\c1ccc(F)cc1
> 100 µM

Next compound up: CCCSC1=N/C(=C\c2ccco2)C(=O)N1
> 100 µM

Next compound up: COc1cc2nccc(Oc3ccc(NC(=O)C4(C(=O)Nc5ccc(F)cc5)CC4)cc3)c2cc1OC
> 100 µM

Next compound up: CCOC(=O)c1ccc(-c2cccs2)[nH]1
> 100 µM

Next compound up: CC1=C(C(=O)OC(C)(C)C)C(c2ccc([N+](=O)[O-])cc2)C(C(=O)OC(C)(C)C)=C(C)N1
62.4 µM
